All figures here come from paper PMC8635173.

Tested on: NCI-H460 non-small cell lung carcinoma
Assay: Anti-proliferative NBB assay
Format: cell-based, human
Details: read-out: IC50 NCI-H460; 72 h
quantity measured: IC50
Kindly write the number and append the unit.

Field IC50 (system: NCI-H460 non-small cell lung carcinoma) for entry N.N.[Cl][Pt][Cl] [Cisplatin, reference compound] = 6.9 µM

* * *

System: MDA-MB-231 triple-negative breast cancer carcinoma
Assay: Anti-proliferative NBB assay
Assay type: cell-based, human
Conditions: read-out: IC50 MDA-MB-231; 72 h
quantity measured: IC50 (µM)
Please respond with the number in µM and leave the unit unwritten.

Field IC50 (system: MDA-MB-231 triple-negative breast cancer carcinoma) for entry N.N.[Cl][Pt][Cl] [Cisplatin, reference compound] = 19.7
